Tested on: multiple myeloma cell line NCI-H929
Experiment: H929 Cell Viability Assay
Assay type: cell-based, human
Details: Homo sapiens, NCI-H929, 48 h, NCI-H929 cells, Celltiter-Glo
pEC50: −log10 of the molar value.
endpoint.name: pEC50

Example molecules with recorded pEC50:
INSERT INTO measurements (molecule, value) VALUES
  ('CC(C)n1ccc(/C=C/c2csc(NC(=O)c3cccn3Cc3ccnc(F)c3)n2)n1', 5.28),
  ('CCc1ccc(N2CCC[C@@H]2c2csc(NC(=O)c3cccn3CC3CCOCC3)n2)cn1', 5.53),
  ('NC(=O)Nc1ccc(N2CCC[C@@H]2c2csc(NC(=O)c3cccn3Cc3ccnc(F)c3)n2)cc1', 6.54),
  ('O=C(Nc1nc([C@H]2CCCN2c2ccc(OC3=CCNCC3)cc2)cs1)c1cccn1Cc1ccnc(F)c1', 5.20),
  ('O=C(Nc1nc([C@@H]2CCCN(c3ccccn3)C2)cs1)c1cccn1Cc1ccncc1', 4.98),
  ('O=C(Nc1nc([C@H]2CCCN2c2ccc(OCCO)cc2)cs1)c1cccn1Cc1ccnc(F)c1', 6.07),
  ('O=C(Nc1nc([C@H]2CCCN2c2ccccc2)cs1)c1cccn1CCC1CCOC1 (stereo partly drawn)', 4.79),
  ('C[C@H](N)c1ccc(N2CCC[C@@H]2c2csc(NC(=O)c3cccn3Cc3ccnc(F)c3)n2)cc1', 5.41);

A = CC(=O)N1CCC(Oc2ccc(N3CCC[C@@H]3c3csc(NC(=O)c4cccn4Cc4ccnc(F)c4)n3)c(C#N)c2)CC1
B = Cc1c(/C=C/c2csc(NC(=O)c3cccn3Cc3ccnc(F)c3)n2)ncn1C(C)C
Response body: label of entry with the larger pEC50; valid values A , B . Selection: enter the item's label.
A
(A: 5.70, B: 5.07)

1 = CCOC(=O)C(C)n1cnc(/C=C/c2csc(NC(=O)c3cccn3Cc3ccnc(F)c3)n2)c1C (stereo not drawn)
2 = CC(=O)N1CCC[C@@H](Oc2ccc(N3CCC[C@@H]3c3csc(NC(=O)c4cccn4Cc4ccnc(F)c4)n3)cc2)C1
Please choose the item with the lower pEC50 value from this pair: 1 and 2 Selection: enter the item's label.
1
(1: 4.88, 2: 5.40)

----------
Test: Liver Microsome Stability Assay (monkey)
Details: monkey liver microsomes, with NADPH, 1.0 uM compound
endpoint.name: Liver Microsome Stability (Multiple Species): Monkey - % Remaining after 30 min w/NADPH (%)

a = NC(=O)c1ccc(N2CCC[C@@H]2c2csc(NC(=O)c3cccn3Cc3ccncc3)n2)cc1 [Compound A19]
b = O=C(Nc1nc([C@H]2CCCN2c2ccc(OC3=CCNCC3)cc2)cs1)c1cccn1Cc1ccnc(F)c1 [Compound A89]
c = Cc1cccnc1N1CCC[C@@H]1c1csc(NC(=O)c2cccn2Cc2ccncc2)n1 [Compound E64]
d = C[C@H](N)c1ccc(N2CCC[C@@H]2c2csc(NC(=O)c3cccn3Cc3ccncc3)n2)cc1 [Compound A71]
Ascending by Liver Microsome Stability (Multiple Species): Monkey - % Remaining after 30 min w/NADPH, please. Please respond with the labels ordered as the question requires.
a, b, c, d
(a: 0.17%, b: 2.45%, c: 7.11%, d: 36.1%)

A = O=C(Nc1nc([C@H]2CCCN2c2ccccc2)cs1)c1cccn1Cc1cccc(Cl)c1 [Compound C122]
B = CC(C)c1c(/C=C/c2csc(NC(=O)c3cccn3Cc3ccnc(F)c3)n2)ncn1C [Compound B81]
Response body: label of entry with the larger Liver Microsome Stability (Multiple Species): Monkey - % Remaining after 30 min w/NADPH; valid values A , B . Selection: enter the item's label.
A
(A: 52.2%, B: 0.06%)

P = C#CCCCCn1cccc1C(=O)Nc1nc([C@H]2CCCN2c2ccccc2)cs1 [Compound C30]
Q = O=C(O)CCCn1cccc1C(=O)Nc1nc([C@H]2CCCN2c2ccccc2)cs1 [Compound C13]
Please choose the item with the lower Liver Microsome Stability (Multiple Species): Monkey - % Remaining after 30 min w/NADPH value from this pair: P and Q Selection: enter the item's label.
P
(P: 5.63%, Q: 81.3%)

P = CN1CCOC(/C=C/c2csc(NC(=O)c3cccn3Cc3ccncc3)n2)C1 (stereo not shown) [Compound B6]
Q = N#Cc1ccccc1Cn1cccc1C(=O)Nc1nc([C@H]2CCCN2c2ccccc2)cs1 [Compound C86]
Please choose the item with the lower Liver Microsome Stability (Multiple Species): Monkey - % Remaining after 30 min w/NADPH value from this pair: P and Q Selection: enter the item's label.
P

a = O=C(Nc1nc([C@H]2CCCN2c2ccccc2)cs1)c1cccn1CCCc1nnn[nH]1 [Compound C14]
b = N#Cc1cc(C(=O)Nc2nc([C@H]3CCCN3c3ccccc3)cs2)n(Cc2ccnc(F)c2)c1 [Compound A149]
Please choose the item with the lower Liver Microsome Stability (Multiple Species): Monkey - % Remaining after 30 min w/NADPH value from this pair: a and b Selection: enter the item's label.
b
(b: 9.8%, a: 90.3%)

A = CC(=O)N1CCC(Oc2ccc(N3CCC[C@@H]3c3csc(NC(=O)c4cccn4Cc4ccnc(F)c4)n3)cc2F)CC1 [Compound A102]
B = CC(=O)N1CCC(Oc2ccc(N3CCC[C@@H]3c3csc(NC(=O)c4cccn4Cc4ccncc4)n3)cc2)CC1 [Compound A7]
Response body: label of entry with the larger Liver Microsome Stability (Multiple Species): Monkey - % Remaining after 30 min w/NADPH; valid values A , B . Selection: enter the item's label.
B
(B: 3.56%, A: 1.22%)

a = CC(=O)N1CC(OC(=O)Nc2ccc(N3CCC[C@@H]3c3csc(NC(=O)c4cccn4Cc4ccnc(F)c4)n3)cc2)C1 [Compound A179]
b = COc1ccc(O[C@H]2CC[C@H](c3csc(NC(=O)c4cccn4Cc4ccncc4)n3)CC2)nc1 [Compound E34]
c = O=C(Nc1nc([C@@H]2CCCN(c3ccccn3)C2)cs1)c1cccn1Cc1ccncc1 [Compound E47]
d = O=C(Nc1nc(CCc2ccccn2)cs1)c1cccn1Cc1ccncc1 [Compound E8]
Given 4 compounds, produce a descending ranking by Liver Microsome Stability (Multiple Species): Monkey - % Remaining after 30 min w/NADPH. Please respond with the labels ordered as the question requires.
a, c, b, d

1 = O=C1NC(/C=C/c2csc(NC(=O)c3cccn3Cc3ccncc3)n2)CO1 (stereo not shown) [Compound B12]
2 = CN(C)C(=O)CCn1cccc1C(=O)Nc1nc([C@H]2CCCN2c2ccccc2)cs1 [Compound C59]
Please choose the item with the lower Liver Microsome Stability (Multiple Species): Monkey - % Remaining after 30 min w/NADPH value from this pair: 1 and 2 Selection: enter the item's label.
2
